System: Escherichia coli
TEST DETAILS: Effect on intestinal bacteria: number of Escherichia coli in feces
Assay type: in vivo, ICR mice
CONDITION DESCRIPTION: after oral administration for 2 days, 500 mg/kg/day, female ICR mice; before: 6.4
Number of Escherichia coli after the administration: recorded values

Here is how some compounds turned out for Number of Escherichia coli after the administration.
COC(=O)c1ccc(NC(=O)C2=C(COC(C)=O)CSC3C(NC(=O)CC#N)C(=O)N23)cc1 (stereo not drawn); 6.5 Log10 (number of bacteria/g feces)
COC(=O)CNC(=O)c1ccc(NC(=O)C2=C(COC(C)=O)CSC3C(NC(=O)CSc4ccncc4)C(=O)N23)cc1 (stereo not drawn); 6.5 Log10 (number of bacteria/g feces)
CC(=O)OCC1=C(C(=O)O)N2C(=O)C(NC(=O)CC#N)C2SC1 (stereo not drawn) [Compound X, reference compound]; 9.0 Log10 (number of bacteria/g feces)
COC(=O)CNC(=O)c1ccc(NC(=O)C2=C(CSc3nnc(C)s3)CSC3C(NC(=O)Cn4cnnn4)C(=O)N23)cc1 (stereo not drawn); 6.5 Log10 (number of bacteria/g feces)
Cc1ccc(NC(=O)C2=C(CSc3nnc(C)s3)CSC3C(NC(=O)Cn4cnnn4)C(=O)N23)cc1 (stereo not drawn); 6.5 Log10 (number of bacteria/g feces)

Challenge: Give a short answer stating reported Number of Escherichia coli after the administration for COC(=O)c1ccc(NC(=O)C2=C(CSc3nnc(C)s3)CSC3C(NC(=O)Cn4cnnn4)C(=O)N23)cc1 (stereo not drawn) .
Response given: 6.4 Log10 (number of bacteria/g feces)

Challenge: Determine from records and report Number of Escherichia coli after the administration for COC(=O)Cc1ccc(NC(=O)C2=C(CSc3nnc(C)s3)CSC3C(NC(=O)Cn4cnnn4)C(=O)N23)cc1 (stereo not drawn)
Response given: 6.4 Log10 (number of bacteria/g feces)

###

Tested on: Lactobacillus bifidus
TEST DETAILS: Effect on intestinal bacteria: number of Lactobacillus bifidus in feces
Assay type: in vivo, ICR mice
CONDITION DESCRIPTION: mouse, in vivo, po, 500 mg/kg/day
compounds and their reported Number of Lactobacillus bifidus after the administration

Past entries and their recorded results:
Cc1nnc(SCC2=C(C(=O)NCCc3ccc(O)cc3)N3C(=O)C(NC(=O)Cn4cnnn4)C3SC2)s1 (stereo not shown); 8.4 Log10 (number of bacteria/g feces)
Cc1nnc(SCC2=C(C(=O)Nc3ccc(C(N)=O)cn3)N3C(=O)C(NC(=O)Cn4cnnn4)C3SC2)s1 (stereo not shown); 8.4 Log10 (number of bacteria/g feces)
CC(=O)OCC1=C(C(=O)Nc2ccc(C)cc2)N2C(=O)C(NC(=O)CC#N)C2SC1 (stereo not shown); 8.2 Log10 (number of bacteria/g feces)
COC(=O)c1ccc(NC(=O)C2=C(CSc3nnc(C)s3)CSC3C(NC(=O)Cn4cnnn4)C(=O)N23)cc1 (stereo not shown); 8.4 Log10 (number of bacteria/g feces)
COC(=O)Cc1ccc(NC(=O)C2=C(COC(C)=O)CSC3C(NC(=O)CSc4ccncc4)C(=O)N23)cc1 (stereo not shown); 8.6 Log10 (number of bacteria/g feces)

Challenge: Supply reported Number of Lactobacillus bifidus after the administration belonging to this compound: CC(=O)OCC1=C(C(=O)Nc2ccc(C(N)=O)cn2)N2C(=O)C(NC(=O)CSc3ccncc3)C2SC1 (stereo not shown)
Response given: 8.6 Log10 (number of bacteria/g feces)

Challenge: Name the recorded Number of Lactobacillus bifidus after the administration of the item COC(=O)Cc1ccc(NC(=O)C2=C(CSc3nnc(C)s3)CSC3C(NC(=O)Cn4cnnn4)C(=O)N23)cc1 (stereo not shown) in your answer.
Response given: 8.2 Log10 (number of bacteria/g feces)

Challenge: For the compound COC(=O)c1ccc(NC(=O)C2=C(COC(C)=O)CSC3C(NC(=O)CC#N)C(=O)N23)cc1 (stereo not shown) , report Number of Lactobacillus bifidus after the administration.
Response given: 8.3 Log10 (number of bacteria/g feces)

###

System: a species of Lactobacillus
TEST DETAILS: Effect on intestinal bacteria: number of a sp. of Lactobacillus in feces
Format: in vivo, ICR mice
CONDITION DESCRIPTION: mouse, in vivo, po, 500 mg/kg/day
Description: (b) Effect on the intestinal bacterial colonies: […] Effects of the present compound on intestinal bacteria Each of the present compounds respectively produced in Examples 1 to 18 was orally administered continuously for 2 days at a daily dose rate of 500 mg/kg body weight to each of five female ICR mice of each group after 6 weeks of their birth. […]
PARAMETER: Number of a sp. of Lactobacillus after the administration

The following molecules have reported results that may help.
CC(=O)OCC1=C(C(=O)Nc2ccc(C)cc2)N2C(=O)C(NC(=O)CC#N)C2SC1 (stereo not shown); 9.0 Log10 (number of bacteria/g feces)
COC(=O)c1ccc(NC(=O)C2=C(COC(C)=O)CSC3C(NC(=O)CSc4ccncc4)C(=O)N23)cc1 (stereo not shown); 9.1 Log10 (number of bacteria/g feces)

Challenge: Identify measured Number of a sp. of Lactobacillus after the administration associated with COC(=O)CNC(=O)c1ccc(NC(=O)C2=C(COC(C)=O)CSC3C(NC(=O)CSc4ccncc4)C(=O)N23)cc1 (stereo not shown)
Response given: 9.1 Log10 (number of bacteria/g feces)

Challenge: Item CC(=O)OCC1=C(C(=O)O)N2C(=O)C(NC(=O)CC#N)C2SC1 (stereo not shown) [Compound X, reference compound] : provide Number of a sp. of Lactobacillus after the administration
Response given: 4.6 Log10 (number of bacteria/g feces)

Challenge: Indicate its recorded Number of a sp. of Lactobacillus after the administration; the molecule in question is Cc1nnc(SCC2=C(C(=O)Nc3ccc(C(=O)O)cc3)N3C(=O)C(NC(=O)Cn4cnnn4)C3SC2)s1 (stereo not shown)
Response given: 8.9 Log10 (number of bacteria/g feces)

Challenge: In one line, give reported Number of a sp. of Lactobacillus after the administration of the entry COC(=O)CNC(=O)c1ccc(NC(=O)C2=C(COC(C)=O)CSC3C(NC(=O)CC#N)C(=O)N23)cc1 (stereo not shown) .
Response given: 8.9 Log10 (number of bacteria/g feces)

Challenge: Input Cc1nnc(SCC2=C(C(=O)NCCc3ccc(O)cc3)N3C(=O)C(NC(=O)Cn4cnnn4)C3SC2)s1 (stereo not shown) , output reported Number of a sp. of Lactobacillus after the administration.
Response given: 9.0 Log10 (number of bacteria/g feces)

###

// values below are reported Number of a sp. of Bacterioides after the administration
Tested on: a species of Bacteroides
TEST DETAILS: Effect on intestinal bacteria: number of a sp. of Bacteroides in feces
Format: in vivo, ICR mice
CONDITION DESCRIPTION: mouse, in vivo, po, 500 mg/kg/day

Some solved cases for reference:
Cc1nnc(SCC2=C(C(=O)NCCc3ccc(O)cc3)N3C(=O)C(NC(=O)Cn4cnnn4)C3SC2)s1 (centres unmarked); 8.1 Log10 (number of bacteria/g feces)
COC(=O)c1ccc(NC(=O)C2=C(COC(C)=O)CSC3C(NC(=O)CC#N)C(=O)N23)cc1 (centres unmarked); 8.7 Log10 (number of bacteria/g feces)
COC(=O)Cc1ccc(NC(=O)C2=C(COC(C)=O)CSC3C(NC(=O)CSc4ccncc4)C(=O)N23)cc1 (centres unmarked); 8.7 Log10 (number of bacteria/g feces)
Cc1nnc(SCC2=C(C(=O)Nc3ccc(C(N)=O)cn3)N3C(=O)C(NC(=O)Cn4cnnn4)C3SC2)s1 (centres unmarked); 8.1 Log10 (number of bacteria/g feces)

Read the next record carefully.
Challenge: Report Number of a sp. of Bacterioides after the administration for CC(=O)OCC1=C(C(=O)O)N2C(=O)C(NC(=O)CC#N)C2SC1 (centres unmarked) [Compound X, reference compound]
Response given: 8.2 Log10 (number of bacteria/g feces)

###

Tested on: Escherichia coli
TEST DETAILS: Effect on intestinal bacteria: number of Escherichia coli in feces
Assay type: in vivo, ICR mice
CONDITION DESCRIPTION: after oral administration for 2 days, 500 mg/kg/day, female ICR mice; before: 6.4
# Number of Escherichia coli after the administration listing for each entry below

Recorded Number of Escherichia coli after the administration, per entry:
CC(=O)OCC1=C(C(=O)Nc2ccc(C(N)=O)cn2)N2C(=O)C(NC(=O)CC#N)C2SC1 (centres unmarked); 6.8 Log10 (number of bacteria/g feces)
Cc1nnc(SCC2=C(C(=O)Nc3ccc(C(N)=O)cn3)N3C(=O)C(NC(=O)Cn4cnnn4)C3SC2)s1 (centres unmarked); 6.4 Log10 (number of bacteria/g feces)
CC(=O)OCC1=C(C(=O)Nc2ccc(C)cc2)N2C(=O)C(NC(=O)CC#N)C2SC1 (centres unmarked); 6.8 Log10 (number of bacteria/g feces)
COC(=O)c1ccc(NC(=O)C2=C(COC(C)=O)CSC3C(NC(=O)CSc4ccncc4)C(=O)N23)cc1 (centres unmarked); 6.9 Log10 (number of bacteria/g feces)
CC(=O)OCC1=C(C(=O)Nc2ccc(C(N)=O)cn2)N2C(=O)C(NC(=O)CSc3ccncc3)C2SC1 (centres unmarked); 6.7 Log10 (number of bacteria/g feces)

Challenge: Read the entry COC(=O)Cc1ccc(NC(=O)C2=C(COC(C)=O)CSC3C(NC(=O)CC#N)C(=O)N23)cc1 (centres unmarked) and write its reported Number of Escherichia coli after the administration.
Response given: 6.6 Log10 (number of bacteria/g feces)

Challenge: For the molecule CC(=O)OCC1=C(C(=O)O)N2C(=O)[C@@H](NC(=O)CSc3ccncc3)[C@H]2SC1 [CEPHAPIRIN, reference compound] , give its measured Number of Escherichia coli after the administration value.
Response given: 9.0 Log10 (number of bacteria/g feces)

Challenge: Name the recorded Number of Escherichia coli after the administration of the molecule listed here: COC(=O)Cc1ccc(NC(=O)C2=C(COC(C)=O)CSC3C(NC(=O)CSc4ccncc4)C(=O)N23)cc1 (centres unmarked)
Response given: 6.5 Log10 (number of bacteria/g feces)
